target of assay: MMP-14 (Homo sapiens, UniProt P50281)
Construct: The catalytic domain enzyme was expressed in E. coli inclusion bodies, solubilized in urea; made in house
run description: In vitro MMP inhibition, Ki determination (fluorogenic substrate II)
Type: biochemical
run parameters: value outside parentheses; read-out: MMP-14 Ki
measured parameter: Ki (nM)

Request: Suppose we examine the compound "CCc1ccc(-c2ccc(C3CCN(S(=O)(=O)C4(C(=O)NO)CCOCC4)CC3)nc2)cc1" ; what Ki value has been reported?
Result: 194

Request: Suppose we examine the compound "O=C(NO)C1(S(=O)(=O)N2CCN(c3ccc(-c4ccc(OC(F)(F)F)cc4)cc3)CC2)CCOCC1" ; what Ki value has been reported?
Result: 1370

Request: Suppose we examine the compound "CCCCCCCOC1CCN(S(=O)(=O)C2(C(=O)NO)CCOCC2)CC1" ; what Ki value has been reported?
Result: 1190

Request: Suppose we examine the compound "CCCCCc1ccc(C2CCN(S(=O)(=O)C3(C(=O)NO)CCOCC3)CC2)nc1" ; what Ki value has been reported?
Result: 645

Request: Suppose we examine the compound "COCCN1CCC(C(=O)NO)(S(=O)(=O)N2CCN(c3ccc(Oc4ccccc4)cc3)CC2)CC1" ; what Ki value has been reported?
Result: 6940

Request: Suppose we examine the compound "O=C(NO)C1(S(=O)(=O)N2CCC(c3ccc(CCC(F)(F)F)cn3)CC2)CCOCC1" ; what Ki value has been reported?
Result: 3290

Request: Suppose we examine the compound "CCCCc1ccc(C2CCN(S(=O)(=O)C3(C(=O)NO)CCN(CC)CC3)CC2)nc1" ; what Ki value has been reported?
Result: 7650

Request: Suppose we examine the compound "CCCCc1ccc(-c2cnc(N3CCN(S(=O)(=O)C4(C(=O)NO)CCOCC4)CC3)s2)cc1" ; what Ki value has been reported?
Result: 283

1 = CCCCOc1ccc(N2CCN(S(=O)(=O)C3(C(=O)NO)CCN(c4ccc(C)nn4)CC3)CC2)cc1
2 = CC(C)(C)c1ccc(-c2cnc(N3CCN(S(=O)(=O)C4(C(=O)NO)CCOCC4)CC3)s2)cc1
Request: Which value of Ki is greater, the one for 1 or the one for 2 ? In your reply, give the label of the chosen option.
Result: 1
(1: 818 nM, 2: 84.6 nM)

1 = CCc1ccc(-c2cnc(N3CCN(S(=O)(=O)C4(C(=O)NO)CCOCC4)CC3)s2)cc1
2 = O=C(NO)C1(S(=O)(=O)N2CCC(c3ccc(OCc4ccccc4)cn3)CC2)CCOCC1
3 = O=C(NO)C1(S(=O)(=O)N2CCN(c3ncc(-c4ccc(Cl)c(Cl)c4)s3)CC2)CCOCC1
Request: Let's sort these by Ki, smallest first. Go ahead? Return value: ordered labels per request.
Result: 1, 3, 2
(1: 54.1 nM, 3: 343 nM, 2: 514 nM)

----------
target of assay: MMP-14 (Homo sapiens, UniProt P50281)
Construct: The catalytic domain enzyme was expressed in E. coli inclusion bodies, solubilized in urea; made in house
run description: In vitro MMP inhibition, Ki determination (fluorogenic substrate II)
Assay type: biochemical
run parameters: value outside parentheses; read-out: MMP-14 Ki
pKi: −log10 of the molar value.
measured parameter: pKi

1 = O=C(NO)C1(S(=O)(=O)N2CCC(COCc3ccccc3)CC2)CCOCC1 [Example 373]
2 = CCc1ccc(N2CCN(S(=O)(=O)C3(C(=O)NO)CCCC3)CC2)nc1 [Example 261]
3 = CCCCOc1ccc(N2CCN(S(=O)(=O)C3(C(=O)NO)CCN(C(C)=O)CC3)CC2)cc1 [Example 282]
Request: Lab note: arrange the 3 molecules above from lowest to highest pKi. Return value: ordered labels per request.
Result: 3, 1, 2

----------
target of assay: MMP-14 (Homo sapiens, UniProt P50281)
Construct: The catalytic domain enzyme was expressed in E. coli inclusion bodies, solubilized in urea; made in house
run description: In vitro MMP inhibition, Ki determination (fluorogenic substrate II)
Assay type: biochemical
run parameters: value not in parenthesis; read-out: MMP-14 Ki
Method: Several hydroxamic acids and salts thereof were analyzed in in vitro assays to determine their ability to inhibit the MMP cleavage of peptide substrates. […] and IC50 constants were calculated from the assayed hydroxamic acid-MMP interactions. […] The assays from which the Ki determinations were made were performed as follows. […] In the absence of MMP inhibitory activity, substrate II was cleaved at the Gly-Leu bond resulting in an increase of relative fluorescence. […]
pKi: −log10 of the molar value.
measured parameter: pKi

Request: Suppose we examine the compound "CCCCCc1ccc(N2CCN(S(=O)(=O)C3(C(=O)NO)CCN(C(C)=O)CC3)CC2)cc1" ; what pKi value has been reported?
Result: 5.98

Request: Suppose we examine the compound "C#CCOC(=O)N1CCC(C(=O)NO)(S(=O)(=O)N2CCN(c3ccc(OCCCC)cc3)CC2)CC1" ; what pKi value has been reported?
Result: 5.79

Request: Suppose we examine the compound "COCCN1CCC(C(=O)NO)(S(=O)(=O)N2CCN(c3ccc(CC(C)C)cc3)CC2)CC1" ; what pKi value has been reported?
Result: 5.16

A = CCCCOc1ccc(N2CCN(S(=O)(=O)C3(C(=O)NO)CCN(C(=O)OCCOC)CC3)CC2)cc1
B = COc1ccc(-c2ccc(N3CCN(S(=O)(=O)C4(C(=O)NO)CCOCC4)CC3)nc2)cc1
C = O=C(NO)C1(S(=O)(=O)N2CCN(c3ccc(SC(F)(F)F)cc3)CC2)CCOCC1
D = CCCCCc1ccc(N2CCN(S(=O)(=O)C3(C(=O)NO)CCN(C(=O)CC)CC3)CC2)cc1
E = O=C(NO)C1(S(=O)(=O)N2CCN(c3ncccn3)CC2)CCOCC1 [Example 106]
Request: Hey, quick one: sort these by pKi, largest value first please. Return value: ordered labels per request.
Result: D, B, C, A, E

P = CCCCOc1ccc(N2CCN(S(=O)(=O)C3(C(=O)NO)Cc4ccccc4C3)CC2)nc1
Q = CCCCc1ccc(N2CCN(S(=O)(=O)C3(C(=O)NO)CCN(c4cccnc4)CC3)CC2)nc1
Request: Between item P and item Q , which reported pKi is smaller? In your reply, give the label of the chosen option.
Result: P
(P: 5.82, Q: 6.09)

----------
target of assay: MMP-9 (Homo sapiens)
Construct: made in house; host or cells: MMP-9-transfected HT1080 cells (spent media)
Sequence (P14780 107-707 limits assumed): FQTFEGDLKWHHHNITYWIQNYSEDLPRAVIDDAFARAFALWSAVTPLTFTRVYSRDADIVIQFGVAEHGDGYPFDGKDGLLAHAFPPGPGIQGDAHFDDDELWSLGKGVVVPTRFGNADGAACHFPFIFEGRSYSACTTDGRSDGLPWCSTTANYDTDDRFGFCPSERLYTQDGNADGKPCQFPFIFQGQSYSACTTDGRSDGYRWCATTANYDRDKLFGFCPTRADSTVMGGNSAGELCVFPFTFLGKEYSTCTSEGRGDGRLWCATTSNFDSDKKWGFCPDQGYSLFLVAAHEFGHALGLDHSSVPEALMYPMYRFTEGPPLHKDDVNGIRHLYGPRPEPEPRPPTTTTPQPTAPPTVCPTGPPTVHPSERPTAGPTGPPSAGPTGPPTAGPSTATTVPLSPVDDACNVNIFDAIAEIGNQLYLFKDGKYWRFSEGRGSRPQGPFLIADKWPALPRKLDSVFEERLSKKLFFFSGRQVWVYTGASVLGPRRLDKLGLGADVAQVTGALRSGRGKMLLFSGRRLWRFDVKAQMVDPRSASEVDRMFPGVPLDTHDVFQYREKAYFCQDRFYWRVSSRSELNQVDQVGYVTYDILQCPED
run description: MMP-9 inhibition (in vitro Ki)
Format: biochemical
run parameters: Table 9; read-out: MMP-9 Ki (IC-50)
measured parameter: Ki (nM)

Request: Suppose we examine the compound "O=C(NO)C1(S(=O)(=O)N2CCC(c3ccc(CCC4CC4)cn3)CC2)CCOCC1" ; what Ki value has been reported?
Result: 0.08

Request: Suppose we examine the compound "CC(C)CCc1cnc(C2CCN(S(=O)(=O)C3(C(=O)NO)CCOCC3)CC2)cn1" ; what Ki value has been reported?
Result: 0.96

Request: Suppose we examine the compound "O=C(NO)C1(S(=O)(=O)N2CCC(c3ccc(C(F)(F)CCC(F)(F)F)cn3)CC2)CCOCC1" ; what Ki value has been reported?
Result: 8.82

Request: Suppose we examine the compound "CCCC(=O)c1ccc(C2CCN(S(=O)(=O)C3(C(=O)NO)CCOCC3)CC2)nc1" ; what Ki value has been reported?
Result: 3.99

Request: Suppose we examine the compound "O=C(CCCCN1CCN(S(=O)(=O)C2(C(=O)NO)CCOCC2)CC1)c1ccc(OC(F)(F)F)cc1" ; what Ki value has been reported?
Result: 1030

Request: Suppose we examine the compound "CN(C(=O)CCCCC1CCN(S(=O)(=O)C2(C(=O)NO)CCOCC2)CC1)c1ccc(F)cc1" ; what Ki value has been reported?
Result: 336

Request: Suppose we examine the compound "O=C(CCCCN1CCN(S(=O)(=O)C2(C(=O)NO)CCOCC2)CC1)c1cccc(OC(F)(F)F)c1" ; what Ki value has been reported?
Result: 814

a = CN(C(=O)CCCCC1CCN(S(=O)(=O)C2(C(=O)NO)CCOCC2)CC1)c1ccccc1
b = O=C(NO)C1(S(=O)(=O)N2CCC(c3ccc(COCC(F)(F)F)cn3)CC2)CCOCC1
c = O=C(NO)C1(S(=O)(=O)N2CCC(c3ccc(CCc4cccs4)cn3)CC2)CCOCC1
Request: Let's sort these by Ki, smallest first. Go ahead? Return value: ordered labels per request.
Result: b, c, a
(b: 1.84 nM, c: 3.84 nM, a: 823 nM)

----------
target of assay: MMP-14 (Homo sapiens, UniProt P50281)
Construct: The catalytic domain enzyme was expressed in E. coli inclusion bodies, solubilized in urea; made in house
run description: In vitro MMP inhibition, Ki determination (fluorogenic substrate II)
Assay type: biochemical
run parameters: value outside parentheses; read-out: MMP-14 Ki
measured parameter: Ki (µM)

1 = COCCN1CCC(C(=O)NO)(S(=O)(=O)N2CCC(c3ccc(CCCC(F)(F)F)cc3)CC2)CC1
2 = CCc1ccc(C2CCN(S(=O)(=O)C3(C(=O)NO)CCN(CCOC)CC3)CC2)s1
Request: Which value of Ki is greater, the one for 1 or the one for 2 ? In your reply, give the label of the chosen option.
Result: 1
(1: 4.82 µM, 2: 1.31 µM)

A = O=C(NO)C1(S(=O)(=O)N2CCC(COCC(F)(F)C(F)F)CC2)CCOCC1
B = CCCCOc1ccc(N2CCN(S(=O)(=O)C3(C(=O)NO)CCN(Cc4ccco4)CC3)CC2)cc1
Request: Which value of Ki is greater, the one for A or the one for B ? In your reply, give the label of the chosen option.
Result: B
(B: 5.18 µM, A: 2.86 µM)

a = O=C(NO)C1(S(=O)(=O)N2CCN(c3ccc(CCCC(F)(F)F)c(F)c3)CC2)CCOCC1
b = CCCCOc1ccc(N2CCN(S(=O)(=O)C3(C(=O)NO)CCN(C(=O)c4ccccc4)CC3)CC2)cc1
Request: Which value of Ki is greater, the one for a or the one for b ? In your reply, give the label of the chosen option.
Result: b
